Target: MAP kinase-interacting serine/threonine-protein kinase 1 (Homo sapiens) (UniProt Q9BUB5)
Sequence (Q9BUB5 whole entry, looked up): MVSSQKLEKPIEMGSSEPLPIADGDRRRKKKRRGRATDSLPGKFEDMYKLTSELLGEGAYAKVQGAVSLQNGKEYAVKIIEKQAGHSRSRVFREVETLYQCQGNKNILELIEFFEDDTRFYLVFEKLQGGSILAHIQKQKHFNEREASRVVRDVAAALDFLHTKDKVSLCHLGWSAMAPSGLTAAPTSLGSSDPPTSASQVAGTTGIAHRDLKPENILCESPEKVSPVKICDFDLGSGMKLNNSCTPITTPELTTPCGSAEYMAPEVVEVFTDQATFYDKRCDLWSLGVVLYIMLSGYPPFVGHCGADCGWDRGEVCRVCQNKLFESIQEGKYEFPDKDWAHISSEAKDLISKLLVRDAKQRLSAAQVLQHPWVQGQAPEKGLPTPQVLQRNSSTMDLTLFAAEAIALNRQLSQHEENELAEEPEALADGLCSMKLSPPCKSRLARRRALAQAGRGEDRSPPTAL
Conditions: at 0.1 µM
Description: GSK_PKIS: MKNK1 mean inhibition at 0.1 uM [Nanosyn]
recorded.metric: inhibition (%)

>>> observed_value("COc1ccc2cc(-c3c(-c4ccncc4)nc(-c4ccc(S(C)(=O)=O)cc4C)n3C)ccc2c1")
2.6
>>> observed_value("Cc1ccc(C(=O)NC(C)C)cc1-c1ccc(C(=O)NCC2CC2)cc1")
-1.07
>>> observed_value("CCc1ccc(Oc2nccc(-c3c(-c4ccc(F)cc4)ncn3C3CCNCC3)n2)cc1")
2.17
>>> observed_value("Cc1ccc(C(=O)NC2CCC2)cc1-c1ccc(C(=O)NCC2CC2)cc1")
0.33
>>> observed_value("Cc1nnc(-c2ccc(C)c(-c3ccc(C(=O)NCc4ccc(Cl)cc4)cc3)c2)o1")
2.03
>>> observed_value("CN(C)c1ccc2c(c1)/C(=C/Nc1ccc(S(N)(=O)=O)cc1)C(=O)N2")
1.64
>>> observed_value("NC(=O)Cc1ccccc1Oc1nccc(-c2c(-c3ccc(F)cc3)ncn2C2CCNCC2)n1")
1.93
>>> observed_value("C[C@@H](Oc1cc(-n2cnc3ccc(OC4CCN(C)CC4)cc32)sc1C(N)=O)c1ccccc1Cl")
3.58
>>> observed_value("O=C1Nc2ccccc2/C1=C/Nc1ccc(-n2cncn2)cc1")
7.6
>>> observed_value("Fc1ccc(-c2ncn(C3CCNCC3)c2-c2ccnc(Oc3ccc(Oc4ccccc4)cc3)n2)cc1")
1.1
>>> observed_value("Fc1ccc(-c2ncn(C3CCNCC3)c2-c2ccnc(Oc3ccc(F)c(F)c3)n2)cc1")
2.05
>>> observed_value("C/C(Nc1ccc(S(N)(=O)=O)cc1)=C1/C(=O)Nc2ccccc21")
-1.24
>>> observed_value("CS(=O)(=O)CCNCc1cc(-c2cc3c(Nc4ccc(OCc5cccc(F)c5)c(Cl)c4)ncnc3s2)cs1")
2.78
>>> observed_value("Fc1ccc(-c2ncn(C3CCNCC3)c2-c2ccnc(Oc3ccc4c(c3)OCO4)n2)cc1")
4.52
>>> observed_value("c1ccc(-c2n[nH]cc2-c2ccnc(-c3ccc(OCCN4CCOCC4)cc3)c2)nc1")
4.82
>>> observed_value("CCN(CC)Cc1ccc(Nc2nccc(-c3cnn4ncccc34)n2)cc1")
2.28
>>> observed_value("COc1ccc(C2=C(N3CCc4ccccc43)C(=O)NC2=O)cc1")
3.88
>>> observed_value("NS(=O)(=O)c1ccc(Nc2cc(-c3ccc(O)c(F)c3)n[nH]2)cc1")
-0.77
>>> observed_value("CCC(=O)Nc1ccc(C)c(-c2ccc(C(=O)NCC3CC3)cc2)c1")
2.05
>>> observed_value("C#Cc1cccc(Nc2ncnc3ccc(OCCCCNCCS(C)(=O)=O)cc23)c1")
9.11
>>> observed_value("CN(C)CCOc1ccc(-c2cc(-c3ccc4c(c3)CCC4=NO)c(-c3ccncc3)o2)cc1")
1.14
>>> observed_value("COc1cc2ncn(-c3cc(OCc4ccccc4C(F)(F)F)c(C(C)=O)s3)c2cc1OC")
3.58
>>> observed_value("Fc1ccc(-c2c(-c3ccncc3)nc3n2CCS3)cc1")
0.84
>>> observed_value("O=C(Nc1n[nH]c2nc(-c3ccco3)ccc12)C1CC1")
1.89
>>> observed_value("N#Cc1ccc(Oc2nccc(-c3c(-c4ccc(F)cc4)ncn3C3CCNCC3)n2)cc1")
2.51
>>> observed_value("NC(=O)c1cc(-c2ccc(F)cc2)cc(-c2ccncc2)c1N")
3.36
>>> observed_value("CCc1cccc(CC)c1/C=C/c1cncc(C(=O)NC)c1")
1.04
>>> observed_value("COc1cccc(-n2cnc3c(N/N=C/c4ccncc4)ncnc32)c1")
0.43
>>> observed_value("C[C@@H](Oc1cc(-n2cnc3ccc(OCC4CCN(C)CC4)cc32)sc1C(N)=O)c1ccccc1Cl")
2.4
